Assay text: Nuclear factor erythroid 2-related factor 2/antioxidant responsive element (Nrf2/ARE) small molecule agonists: luciferase reporter gene qHTS assay in human keratinocytes (AID 1919969); further: nearly all actives have a fitted effect of over 35% in size
Experimental context: KeratinoSens HaCaT ARE-luciferase, luminescence, 24 h; series mostly up to 92.4 µM
Results filed as inconclusive are left out. Activity calls are given as the source filed them. The call rests on the fitted dose curve.
Write down the outcome that applies. Available outcomes: true = active, false = inactive

COc1cc(C=O)cc2c1[C@H](COC(N)=O)[C@]1(OC(C)=O)ON2C[C@H]2[C@@H]1N2C(C)=O | false

Prompt line: Hello, I am checking results. What call was entered for CCCCC(O)(Cn1cncn1)c1ccc(Cl)cc1Cl (stereo unspecified) ?
Response line: false

Prompt line: In this assay, the call recorded for c1ccc2c(c1)[nH]c1cnccc12 was what?
Response line: false

Prompt line: Which outcome was entered for the molecule CC(C(O)c1ccccc1)N(C)C/C=C/c1ccccc1 (stereo unspecified) in this test?
Response line: false

Prompt line: Tell me the assay call for c1ccc2c(c1)Sc1ccccc1N2CC1CN2CCC1CC2 (stereo unspecified) please.
Response line: false

Prompt line: Each molecule tested received a call. Report the one for CC1Sc2c(C(=O)O)c(=O)c3cc(F)c(N4CCNCC4)cc3n21 (stereo unspecified) .
Response line: false

Prompt line: In this assay, the call recorded for Oc1ccc(I)cc1 was what?
Response line: false

Prompt line: Hello, I am checking results. What call was entered for Nc1nc(N)c(N)c(N)n1 ?
Response line: false

Prompt line: Per the assay record, what outcome was assigned to CN1CCN(C(=O)O[C@H]2c3nccnc3C(=O)N2c2ccc(Cl)cn2)CC1 ?
Response line: false

Prompt line: Recorded test call requested for CCC1CCC(=O)O1 (stereo unspecified)
Response line: false

Prompt line: Any idea what this test logged for O=C(NC(=O)c1cc(F)c(F)cc1Cl)Nc1cc(F)ccc1N1CCC(C(=O)O)CC1 ?
Response line: false

Prompt line: Which outcome was assigned to Cc1ccn2nc(S(=O)(=O)Nc3c(F)cccc3F)nc2n1 in this test?
Response line: false

Prompt line: I would be grateful if you could indicate the recorded call for C1CCNCC1 .
Response line: false

Prompt line: Just curious, what result did COc1cc(C[C@@H](C)N)c(OC)cc1C get here?
Response line: false
